Target: Msn1 (UniProt P22148)
Sequence: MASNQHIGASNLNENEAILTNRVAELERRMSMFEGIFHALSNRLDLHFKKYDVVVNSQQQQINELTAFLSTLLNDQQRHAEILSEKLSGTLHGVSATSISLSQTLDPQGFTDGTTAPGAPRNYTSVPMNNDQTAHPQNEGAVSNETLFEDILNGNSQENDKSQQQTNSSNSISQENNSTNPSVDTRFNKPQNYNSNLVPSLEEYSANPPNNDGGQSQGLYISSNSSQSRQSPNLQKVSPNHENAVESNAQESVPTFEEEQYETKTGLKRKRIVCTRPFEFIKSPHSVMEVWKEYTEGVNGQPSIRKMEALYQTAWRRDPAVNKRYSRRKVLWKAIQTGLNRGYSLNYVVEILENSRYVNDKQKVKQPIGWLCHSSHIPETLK
Assay: PBM E-score (8-mer binding enrichment) (E-score (-0.5 to 0.5)); higher = stronger / more preferred TF binding
Conditions: protein concentration: 200 nM; construct: GST-full length
The full ranking holds about 33,000 sequences; the median of “E-score (-0.5 to 0.5)” is about -0.013, and the highest 2% start at about 0.3. The list comes from a sample in which the highest values are over-represented; it also holds close analogues and randomly drawn sequences.
Below is a list of entries, each paired with its recorded PBM E-score value.
Answer field: number only, no words.

The cases that follow already have their PBM E-score on record.
   macromolecule_sequence  recorded_result
0                GACGACAA            0.299
1                AAGTACGG           0.0556
2                AGACTTGC           -0.136
3                CCATTTAC           0.0112
4                AGCTGGTC          -0.0428

[Q] GET /values?readout=PBM E-score&item= ACATTTAG
[A] 0.279

[Q] GET /values?readout=PBM E-score&item= GAGTAGGA
[A] -0.151

[Q] GET /values?readout=PBM E-score&item= AGTGGGAC
[A] 0.118

[Q] GET /values?readout=PBM E-score&item= AACGACAG
[A] -0.0454

[Q] GET /values?readout=PBM E-score&item= ATTGCGGA
[A] 0.145

[Q] GET /values?readout=PBM E-score&item= AGTTTGTG
[A] -0.0605
